Tested on: E. coli TESEC Mtb Asd
Measurement protocol: growth (OD600 after 10 h); higher = more growth (less inhibition)
Conditions: arabinose induction (level): Low; compound 0.1 mM; raw OD600 reference: median of DMSO wells 0.417, cell-free background 0.041
Documented growth across a set of compounds
Write no unit; give the number alone.

# Compound, growth
records = [
    ("C[N+](C)(C)CCOC(N)=O [Carbachol]", 0.438),
    ("Cc1noc(NS(=O)(=O)c2ccc(N)cc2)c1C [Sulfisoxazole]", 0.386),
    ("CC(C)(C(=O)c1cccnc1)c1cccnc1 [Metyrapone]", 0.428),
]

**Q:** Param item = Cc1cc(O)c(C(=O)N[C@@H](C(=O)N[C@@H]2C(=O)N3C(C(=O)O)=C(CSc4nnnn4C)CS[C@H]23)c2ccc(O)cc2)cn1 [Cefpiramide] ; retrieve measured growth.
**A:** 0.375

**Q:** Param item = CC(C)C(=O)c1c(C(C)C)nn2ccccc12 [Ibudilast] ; retrieve measured growth.
**A:** 0.372
